meta.source: patent US5936101A

assay method text: Base-induced decay of chemiluminescence of hydroxyphenyl alkoxy or aryloxy dioxetanes in 221 buffer pH 9.6
Format: physicochemical
test settings: 0.2 M 221 buffer, 0.88 mM Mg+2, 1.0 mg/mL 1-trioctylphosphoniummethyl-4-tributylphosphoniummethylbenzene dichloride
Description: The first order decay of chemiluminescence of dioxetanes 14-19 in 0.2 M 2-methyl-2-amino-1-propanol (221) buffer, pH 9.6 containing 0.88 mM Mg^+2 and 1.0 mg/mL of 1-trioctylphosphoniummethyl-4-tributylphosphoniummethylbenzene dichloride was measured at 37° C. in a Turner Designs (Sunnyvale, Calif.) model TD-20e luminometer. […]
Give measured t1/2 37° C. (half-life of decay of chemiluminescence) for each item. Keep answers brief.
Answers are plain numbers, in min.

{"compound": "Oc1cccc(C2(OCC(Cl)Cl)OOC23C2CC4CC(C2)CC3C4)c1 (stereo not drawn)", "reported": 4.1}

Need t1/2 37° C. (half-life of decay of chemiluminescence) for each of these compounds.
1. Oc1cccc(C2(Oc3c(F)cccc3F)OOC23C2CC4CC(C2)CC3C4)c1 (stereo not drawn)
2. Oc1cccc(C2(OCC(Cl)(Cl)Cl)OOC23C2CC4CC(C2)CC3C4)c1 (stereo not drawn)
3. Oc1cccc(C2(OCC(F)(F)C(F)(F)F)OOC23C2CC4CC(C2)CC3C4)c1 (stereo not drawn)
4. Oc1cccc(C2(OC(C(F)(F)F)C(F)(F)F)OOC23C2CC4CC(C2)CC3C4)c1 (stereo not drawn)
5. Oc1cccc(C2(OCC(F)(F)C(F)(F)C(F)(F)F)OOC23C2CC4CC(C2)CC3C4)c1 (stereo not drawn)

A:
[1.76, 3.7, 3.4, 0.16, 4.9]
